Biological target: p53/hDM2 interaction (FITC–p53_15–31 / hDM2(17-126) L33E) (Homo sapiens, UniProt Q00987, L33E)
Construct: hDM2(17-126)
Test: Fluorescence anisotropy (FA) competition assay against p53/hDM2
Type: binding
Settings: 50 nM FITC–p53(15-31), 150 nM hDM2(17-126) L33E, 40 mM phosphate buffer pH 7.5, 200 mM NaCl, 0.02 mg mL−1 BSA, 5 % DMSO, read after 1 h at room temperature, triplicate, fit ± error
MEASUREMENT_KIND: IC50

| COMPOUND | MEASUREMENT_KIND | DATA_VALUE |
| --- | --- | --- |
| COC(=O)CC[C@H](CC(C)C)NC(=O)[C@H]1CC[C@@H]1NC(=O)CC[C@H](Cc1ccccc1)NC(=O)[C@H]1CC[C@@H]1NC(=O)CC[C@@H](C)NC(=O)[C@H](Cc1ccccc1)NC(=O)OC(C)(C)C [Peptide 4] | IC50 | > 100 µM |

// IC50 value for COC(=O)[C@H](CC(C)C)NC(=O)[C@H]1CC[C@@H]1NC(=O)CC[C@H](Cc1c[nH]c2ccccc12)NC(=O)[C@H]1CC[C@@H]1NC(=O)CC[C@@H](C)NC(=O)[C@H](Cc1ccccc1)NC(C)=O [Peptide 5] : > 100 µM
